system: UniProt P16638
protocol notes: Reversible binding potential for rat ATP-Citrate Lyase as carbon-carbon bond cleavage activity in citrate substrate
pKi: −log10 of the molar value.
readout: pKi

Reference set (8 entries):
>>> reported_value("O=C(O)C[C@@](O)(C(=O)O)[C@@H](S)C(=O)O")
3.82
>>> reported_value("CSSC(CC(=O)O)(CC(=O)O)C(=O)O")
3.32
>>> reported_value("CSS[C@H](C(=O)O)[C@@](O)(CC(=O)O)C(=O)O")
4.47
>>> reported_value("O=C(O)C[C@@](O)(C(=O)O)[C@@H](Cl)C(=O)O")
4.54
>>> reported_value("O=C(O)C[C@]1(C(=O)O)O[C@@H]1C(=O)O")
3.40
>>> reported_value("O=C1C[C@@](C(=O)O)([C@@H](Cl)C(=O)O)O1")
3.47
>>> reported_value("O=C(O)C[C@@](O)(C(=O)O)[C@H](S)C(=O)O")
4.24
>>> reported_value("O=C(O)C[C@]1(C(=O)O)O[C@H]1C(=O)O")
4.74

I: O=C(O)C[C@@](O)(C(=O)O)[C@H](O)C(=O)O
II: O=C(O)CC(S)(CC(=O)O)C(=O)O
*Q* Which entry has a larger number for pKi, I or II ? To answer, give the label that identifies your chosen option.
*A* I
(I: 6.82, II: 3.53)

---

system: ATP-citrate synthase (Rattus norvegicus)
Sequence (P16638 whole entry): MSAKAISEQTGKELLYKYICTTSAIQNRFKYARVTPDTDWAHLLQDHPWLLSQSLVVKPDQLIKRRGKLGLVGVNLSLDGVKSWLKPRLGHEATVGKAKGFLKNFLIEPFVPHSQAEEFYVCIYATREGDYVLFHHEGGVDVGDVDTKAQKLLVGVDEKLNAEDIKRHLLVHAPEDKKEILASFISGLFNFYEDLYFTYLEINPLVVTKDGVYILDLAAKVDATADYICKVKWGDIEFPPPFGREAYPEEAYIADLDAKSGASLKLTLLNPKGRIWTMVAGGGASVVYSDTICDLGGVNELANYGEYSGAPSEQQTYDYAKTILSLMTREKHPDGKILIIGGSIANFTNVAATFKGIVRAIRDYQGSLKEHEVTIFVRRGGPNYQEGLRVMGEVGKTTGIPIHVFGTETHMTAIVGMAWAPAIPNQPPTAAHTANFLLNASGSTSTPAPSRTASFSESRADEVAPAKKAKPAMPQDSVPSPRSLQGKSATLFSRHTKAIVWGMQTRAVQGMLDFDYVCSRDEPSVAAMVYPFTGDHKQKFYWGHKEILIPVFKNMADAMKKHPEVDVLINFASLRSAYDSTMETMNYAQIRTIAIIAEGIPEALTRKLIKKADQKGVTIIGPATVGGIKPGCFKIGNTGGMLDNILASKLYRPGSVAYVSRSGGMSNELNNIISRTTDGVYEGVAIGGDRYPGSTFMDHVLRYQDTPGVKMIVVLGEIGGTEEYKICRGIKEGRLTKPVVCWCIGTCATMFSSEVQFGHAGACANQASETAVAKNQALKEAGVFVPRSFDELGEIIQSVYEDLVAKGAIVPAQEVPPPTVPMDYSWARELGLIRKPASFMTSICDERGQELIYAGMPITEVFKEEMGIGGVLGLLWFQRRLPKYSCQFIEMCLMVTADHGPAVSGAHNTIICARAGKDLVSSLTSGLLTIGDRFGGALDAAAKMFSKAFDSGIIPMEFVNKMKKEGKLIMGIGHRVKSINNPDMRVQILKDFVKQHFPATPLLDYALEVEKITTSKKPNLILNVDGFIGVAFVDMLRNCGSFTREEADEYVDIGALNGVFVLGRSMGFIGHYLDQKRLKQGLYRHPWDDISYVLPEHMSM
protocol notes: Reversible binding potential for rat ATP-Citrate Lyase as carbon-carbon bond cleavage activity in citrate substrate
pKi: −log10 of the molar value.
# pKi per record follows

Reference set (2 entries):
>>> reported_value("C=C(CC(=O)O)C(=O)O [ITACONATE]")
"< 3.00"
>>> reported_value("O=C(O)/C=C(\\CC(=O)O)C(=O)O")
"< 3.00"

Now look at this one.
*Q* // Input: O=C(O)/C=C(/CC(=O)O)C(=O)O . Output its pKi only.
*A* < 3.00
